# Study system: T1, CD27 expressed on the cell surface (HT1080_CD27 cells) (human, UniProt P26842 20-260); also: test concentration or dose not given here
# T1 sequence (looked up): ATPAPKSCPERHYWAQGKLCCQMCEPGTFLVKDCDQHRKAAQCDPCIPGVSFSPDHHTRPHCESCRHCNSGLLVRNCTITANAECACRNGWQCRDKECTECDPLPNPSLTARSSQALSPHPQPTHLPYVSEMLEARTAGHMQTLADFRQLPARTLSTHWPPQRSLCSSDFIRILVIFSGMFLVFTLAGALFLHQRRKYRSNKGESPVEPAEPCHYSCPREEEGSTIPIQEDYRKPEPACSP
# Procedure details: cell-based or functional assay
Endpoint label: IL-8, cross-linked by F(ab')2 fragment [abs. corr.] (abs. corr.)
Give bare numbers, in abs. corr..

Below, 4 binders whose answers are already recorded.
P018.S.07.A.F04 (antibody, V domains shown, V regions on human Ig constant parts; also called AB27_128) VH: QSLEESGGRLVTPGTPLTLTCTVSGFSLSSHAMSWVRQAPGKGLEYIGIIDTDASASYASWAKGRFTISRTSTTVDLKITSPTTEDTATYFCARDGGYTDYSYYAMDLWGPGTLVTVSS VL: DIVMTQTPASVEAAVGGTVTIKCQASETIYVNLAWYQQKPGQPPKLLIYRASTLASGVSSRFKGSGSGTEFTLTISDVKSVDAATYYCHQAYRRSDVGNIFGGGTEVVVK    1.58
P018.S.04.A.C05 (antibody, V domains shown, V regions on human Ig constant parts; also called AB27_70) VH: QSVEESGGRLVTPGTPLTLTCTVSGFSLNYYSMAWVRQVPGEGLEWIGTINTGGGTYYASWAKGRFTISKTSTTVDLKMTSLTAADTATYFCARSDGTGITYYNLWGQGALVTVSS VL: ALVMTQTASPVSAAVGGTVTINCQASETIYSNLAWYQQKQGQPPKLLIYRASNLASGVPSRFSGSESGTQFTLTISGVQSDDAATYYCQGYYNTGITGFGGGTEVVVK    1.43
P018.S.01.A.F05 (antibody, V domains shown, V regions on human Ig constant parts; also called AB27_20) VH: QEQLEESGGDLVKPEGSLTLTCTASGFSFSSSYWICWVRQAPGKGLEWIGCIITGRGNTYYANWAKGRFTISKTSSTTVTLQMTSLTAADTAIYSCARGPGGADPVNLWGPGTLVTVSS VL: DVVMTQTPASVSEPVGGTVTIKCQASQSIYSNLAWYQQKPGQPPKLLIYRASTLTSGVPSRFKGSGSGTQFTLTISDLESADAATYYCQCTYDGSSYVPNAFGGGTEVVVK    1.18
P018.S.07.A.H02 (antibody, V domains shown, V regions on human Ig constant parts; also called AB27_131) VH: QEQLVESGGGLVQPEGSLTLTCKASGFDFSSDAMCWVRQAPGKGLEWIACIYVGSVGSSWYASWAKGRFTISKSSSTTVTLQVTSLTAADTATYFCARGENIAYFTFWGPGTLVTVSS VL: DIMMTQTPASVSAAVGGTVTIKCQASQSINSWLSWYQQKPGQPPKLLIYKASTLASGVPSRFEGSGSGTEFTLTISDLESADAATYYCQGYYYYSSSNFASNAFGGGTEVVVK    1.22

Now look at this entry.
[in] Fill blank: measured IL-8, cross-linked by F(ab')2 fragment [abs. corr.] of the binder P018.S.01.A.G02 (antibody, V domains shown, V regions on human Ig constant parts; also called AB27_21) VH: QEQLEESGGRLVTPGGTLTLTCTASGFSLSSYDMSWVRQAPGKGLEWIGYIWSDGNTDYATWAAGRFTASRASTTVDLKMTSLTTEDTATYFCARGYTGFFLWGPGTLVTVSS VL: DVVMTQTPSSVSAAVGGTVTIKCQASQSIGSSYLSWYQQKPGQPPKLLIYKTSTLASGVPSRFKGSGSGTEFTLTISDLESDDAATYYCQCTYYGGSWRVAFGGGTEVVVK is ____.
[out] 1.88

Provenance of the data: patent US20210253725A1
